These data points were gathered from ChEMBL document CHEMBL3286343.

IC50 overview
# ASSAY TARGET: Intermediate conductance calcium-activated potassium channel protein 4 (Homo sapiens)
# Sequence (O15554 whole entry): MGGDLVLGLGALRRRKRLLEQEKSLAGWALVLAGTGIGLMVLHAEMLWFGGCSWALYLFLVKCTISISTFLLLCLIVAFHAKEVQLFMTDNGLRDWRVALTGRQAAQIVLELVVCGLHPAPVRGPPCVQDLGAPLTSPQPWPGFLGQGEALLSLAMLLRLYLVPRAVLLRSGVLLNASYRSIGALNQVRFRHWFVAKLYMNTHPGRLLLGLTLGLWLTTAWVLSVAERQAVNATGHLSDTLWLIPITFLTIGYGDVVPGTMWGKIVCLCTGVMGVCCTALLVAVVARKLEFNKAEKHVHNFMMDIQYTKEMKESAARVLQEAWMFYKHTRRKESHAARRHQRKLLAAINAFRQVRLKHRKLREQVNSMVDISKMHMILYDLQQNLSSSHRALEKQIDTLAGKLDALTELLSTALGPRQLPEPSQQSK
# EXPERIMENTAL DETAILS: Inhibition of human KCa3.1 overexpressed in HEK293 cells assessed as thallium influx preincubated for 15 mins followed by thallium/ionomycin addition measured for 50 secs by FLIPR assay
# Type: cell-based

{"COMPOUND": "CC(c1ccc(F)c(OC(F)(F)F)c1)N1C(=O)CS(=O)(=O)c2ccsc21 (configuration not stated)", "UNIT INFO": "nM", "IC50": 39}
{"COMPOUND": "CC(c1ccc(F)c(OC(F)(F)F)c1)N1C(=O)CSc2ncsc21 (configuration not stated)", "UNIT INFO": "nM", "IC50": 60}
